Target: T1, Human CXCR2 (human, UniProt P25025 1-360)
T1 sequence: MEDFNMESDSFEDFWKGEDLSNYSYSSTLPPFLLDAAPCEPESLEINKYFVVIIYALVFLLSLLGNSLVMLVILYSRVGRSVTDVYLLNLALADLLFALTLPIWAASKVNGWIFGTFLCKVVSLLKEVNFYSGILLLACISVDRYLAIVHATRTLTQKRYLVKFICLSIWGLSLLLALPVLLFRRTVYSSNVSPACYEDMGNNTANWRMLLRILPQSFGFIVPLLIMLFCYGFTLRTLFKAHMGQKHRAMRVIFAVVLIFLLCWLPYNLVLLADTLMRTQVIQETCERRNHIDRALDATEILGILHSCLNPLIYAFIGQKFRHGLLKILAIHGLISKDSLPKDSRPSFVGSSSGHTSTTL
Assay: cell-based or functional assay
FLIPR IC50 (GRO-α induced calcium release) for assorted binders
Numbers only; they are read as nM.

# example entries with known answers
137B7 (VHH, Tested as periplasmic extract (pAX50) and as purified His6-tagged protein (pAX100); also called 137B07; not shown: C-terminal c-myc tag and His6 tag coded by the vector) VHH: EVQLVESGGGLVQPGGSVRLSCVASGIIFRLSALGWTRQGPGKAREWVAGINSDGTTNYADPVKGRFTISRDNAKNTIYLHMDMLKPEDTAVYYCASGKYRGQGTQVTVSS ... 6.71
127D1 (VHH, Tested as periplasmic extract (pAX50) and as purified His6-tagged protein (pAX100); also called 127D01; not shown: C-terminal c-myc tag and His6 tag coded by the vector) VHH: EVQLVESGGGLVQAGESLRLSCAASGSTFDFKVMGWYRQPPGKQREGVAAIRLSGNMHYAESVKGRFTISKANAKNTVYLQMNSLRPEDTAVYYCKVNIRGQDYWGQGTQVTVSS ... 21.9
163D2 (VHH, Tested as periplasmic extract (pAX50) and as purified His6-tagged protein (pAX100); also called 163D02; not shown: C-terminal c-myc tag and His6 tag coded by the vector) VHH: EVQLVESGGGLVQAGGSLRLSCAASGRTFSDYAMGWFRQAPGKEREFVAAITWNGGRVFYTASVKGRFTISRDNAKNTMYLQMNSLKPEDTAVYYCAADKDRRTDYLGHPVAYWGQGTQVTVSS ... 1.91

Now for the binder whose FLIPR IC50 (GRO-α induced calcium release) we want.
Problem: Annotate the binder 54B12 (VHH, Tested as periplasmic extract (pAX50) and as purified His6-tagged protein (pAX100); also called 054B12; not shown: C-terminal c-myc tag and His6 tag coded by the vector) VHH: EVQLVESGGGLVQAGGSLTLSCAVSGSTFRINTMGWYRRAPGKQRELVAARDRGGYINYVDSVKGRFTVSRDNAKPTMYLQMNSLKPEDTAVYYCHAGTQDRTGRNFDRWGQGTQVTVSS with its measured FLIPR IC50 (GRO-α induced calcium release).
Solution: 153

Source: patent US20130330346A1
